# target: HIS-tagged RORγ-LBD (Homo sapiens, UniProt P51449)
# Construct: HIS-tagged RORγ-LBD was recombinantly expressed in SF9 cells using a baculovirus expression system; made in house; host or cells: SF9 cells, baculovirus; crude lysate used
# Sequence (P51449 269-508 limits assumed): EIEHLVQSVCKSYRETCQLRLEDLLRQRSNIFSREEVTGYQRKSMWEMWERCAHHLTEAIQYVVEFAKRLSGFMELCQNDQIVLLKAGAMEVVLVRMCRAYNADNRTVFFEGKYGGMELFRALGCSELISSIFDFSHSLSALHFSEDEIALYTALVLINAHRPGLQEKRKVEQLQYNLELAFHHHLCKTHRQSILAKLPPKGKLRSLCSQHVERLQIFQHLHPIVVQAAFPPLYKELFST
# assay notes: TR-FRET assay (Protocol B), RORγ-LBD lysate / biotinylated SRC1-2 LXXLL peptide
# Format: biochemical
# test context: unpurified RORγ-LBD lysate ~10 nM, SRC1-2 peptide 450 nM
pIC50: −log10 of the molar value.
compounds and their reported pIC50

# count of solved cases: 3
compound="O=C(O)c1ccc(-c2nn(C(=O)c3c(Cl)cccc3C(F)(F)F)c3cc(C(=O)NCCO)ccc23)cc1 [Example 25A]" outcome_measure=pIC50 value_reported="> 7.30"
compound="O=C(O)c1ccc(-c2nn(C(=O)c3c(Cl)cccc3C(F)(F)F)c3cc(C(=O)NCCO)ccc23)c(Cl)c1 [Example 25K]" outcome_measure=pIC50 value_reported="> 7.30"
compound="O=C(O)c1ccc(-c2nn(C(=O)c3c(Cl)cccc3C(F)(F)F)c3cc(O)ccc23)cc1 [Example 24BA]" outcome_measure=pIC50 value_reported="> 7.30"

Read off the recorded pIC50 for O=C(O)c1cc(F)c(-c2nn(C(=O)c3c(Cl)cccc3C(F)(F)F)c3cccc(F)c23)cc1F [Example 24W] > 7.30

Give a short answer stating reported pIC50 for COc1cccc(F)c1C(=O)n1nc(-c2ccc(C(=O)O)cc2F)c2ncccc21 [Example 24AN] . > 7.30

Answer with the recorded pIC50 for the compound listed here: CC(C)c1cc(-c2nn(C(=O)c3c(Cl)cccc3C(F)(F)F)c3cccc(F)c23)ccc1C(=O)O [Example 24S] 5.00 to 6.30

Tell me measured pIC50 for O=C(O)c1cc(F)c(-c2nn(C(=O)c3c(Cl)cccc3C(F)(F)F)c3cccnc23)cc1Cl [Example 24AJ] please. 6.30 to 7.30

Measured values drawn from patent US9884043B2 for this set.
